Tested on: A498 renal
Test: NCI tumour cell line growth inhibition, 48 h
Property: GI50; scope: individual molecules

{"columns": ["molecule", "GI50"],
 "data": [
  ["CC(=O)OC1CC2C(C)(C)CCC[C@]2(C)C2=C1C(O)=C(C(C)C)C(=O)C2=O (some centres not stated)", "402 nM"],
  ["COc1ccc(C2CC(c3ccccc3)=NN2C(=O)c2cc(OC)c(OC)c(OC)c2)cc1O (configuration not stated)", "618 nM"],
  ["Cc1cncc(-c2nc(NCCc3c[nH]c4ccccc34)c3ncn(C(C)C)c3n2)c1", "3400 nM"],
  ["c1ccc(COCC[P+](c2ccccc2)(c2ccccc2)c2ccccc2)cc1", "1330 nM"],
  ["CCC1=C[C@@H]2CN(C1)Cc1c([nH]c3ccccc13)[C@@](C(=O)OC)(c1cc3c(cc1OC)N(C)[C@H]1[C@@](O)(C(=O)OC)[C@H](OC(C)=O)[C@]4(CC)C=CCN5CC[C@]31[C@@H]54)C2", "< 10 nM"],
  ["O=C(/C=C/c1ccco1)Nc1ncc(Cc2cccc(C(F)(F)F)c2)s1", "26.7 nM"],
  ["Clc1ccc(-c2nc3c(-c4ccccc4)nc(-c4ccccc4)cn3c2-c2ccc(Cl)cc2)cc1", "> 100000 nM"],
  ["CS(=O)(=O)c1ccc2c(c1)C(=O)c1c-2n(CCCBr)c(=O)c2cc([N+](=O)[O-])ccc12", "127 nM"],
  ["Cc1cc(I)cc(CNCCN2CCOCC2)c1O", "> 100000 nM"],
  ["COC1=CC(c2ccc[nH]2)=N/C1=C\\c1[nH]c(C)c(C(=O)Oc2ccccc2)c1C", "648 nM"],
  ["Fc1ccc(Nc2ncc(-c3cc(F)c(Cl)cc3Cl)s2)cc1Cl", "11200 nM"],
  ["COc1ccc(N=N/C(=N\\NC(=O)c2cc(Br)ccc2O)c2ccc(N(CCC#N)CCC#N)cc2OC)cc1", "> 150 µg/mL"]
]}

====

System: UO-31 renal
Experiment: NCI tumour cell line growth inhibition, 48 h
compounds and their reported TGI

{"columns": ["compound_string", "TGI"],
 "data": [
  ["O=C1C(Cl)=C(Cl)C(=O)N1c1ccccc1Cl", "> 100 µM"],
  ["CS(=O)(=O)c1ccc2c(c1)C(=O)c1c-2n(CCCBr)c(=O)c2cc([N+](=O)[O-])ccc12", "> 100 µM"],
  ["O=C1C(Cl)=C(N2CCN(CCOCCO)CC2)C(=O)c2ccccc21", "21.2 µM"]
]}

====

System: HCT-15 colon
Assay: NCI tumour cell line growth inhibition, 48 h
assay_endpoint: TGI

{"columns": ["compound", "assay_endpoint", "endpoint_value"],
 "data": [
  ["Clc1ccc(-c2nc3c(-c4ccccc4)nc(-c4ccccc4)cn3c2-c2ccc(Cl)cc2)cc1", "TGI", "> 100 µM"],
  ["O=C(/C=C\\c1cc(Br)ccc1O)/C=C/c1cc(Br)ccc1O", "TGI", "1.76 µM"],
  ["CCOC(CN(C)C(=O)Nc1ccc(Cl)c(Cl)c1)OCC", "TGI", "> 10 µM"],
  ["COC(=O)C1CC(c2ccc(Cl)cc2)=NO1 (stereo unspecified)", "TGI", "> 100 µM"],
  ["Cc1ccc(S(=O)(=O)NN=C2C(C)(C)CC2(C)C)cc1", "TGI", "> 100 µM"],
  ["Cc1ccc(C(=O)C(c2nc3n(c2O)C(=N)N=N3)c2nc3n(c2O)C(=N)N=N3)cc1 (stereo unspecified)", "TGI", "> 100 µM"]
]}

====

Test system: OVCAR-8 ovarian
Assay: NCI tumour cell line growth inhibition, 48 h
assay_endpoint: TGI

{"columns": ["compound", "endpoint_value"],
 "data": [
  ["O=C(CC(=O)N1N=C(n2ccc3ccccc32)CC1c1ccccc1)Nc1ccc(Cl)cc1 (centres undefined)", "> 100 µM"],
  ["CC(=O)OC1CC2C(C)(C)CCC[C@]2(C)C2=C1C(O)=C(C(C)C)C(=O)C2=O (some centres undefined)", "14.5 µM"],
  ["CC(C)(Oc1ccc(C(=O)c2ccc(Cl)cc2)cc1Cl)C(=O)N1CCN(CCO)CC1", "> 10 µM"],
  ["Clc1cc2nc(C3CCCCO3)[nH]c2cc1Cl (centres undefined)", "> 73 µM"],
  ["Nc1c(C(=O)c2ccc(C#CCN3CCOCC3)cc2)cnn1-c1ccc(F)cc1", "> 25 µM"],
  ["CCOC(=O)NC(=O)c1cn(CCCCCCCCCCC(=O)NCCCN2CCN(CCCNC(=O)CCCCCCCCCCn3cc(C(=O)NC(=O)OCC)c(=O)[nH]c3=O)CC2)c(=O)[nH]c1=O", "> 100 µM"],
  ["CCNC(=O)Oc1ccc(/C(=C(\\C)c2ccc(Cl)cc2)c2ccc(OCCN(CC)CC)cc2)cc1", "29.1 µM"],
  ["O=c1oc2ccc3ccccc3c2cc1-c1nc(-c2ccc([N+](=O)[O-])cc2)n[nH]1", "94.6 µM"],
  ["O=C(O)C1CC(C2CCCCN2)CN2CCCCC12 (centres undefined)", "> 100 µM"]
]}

====

Tested on: OVCAR-8 ovarian
Test: NCI tumour cell line growth inhibition, 48 h

{"columns": ["molecule", "TGI"],
 "data": [
  ["CCC(C)C(=O)O[C@H]1C(=O)O[C@@H]2C[C@H]3C(C)=CC(=O)[C@@H](O)[C@]3(C)[C@H]3[C@@H](O)[C@H](O)[C@@]4(C)OC[C@]32[C@@H]14 (stereo not given in full)", "< 0.0302 µM"],
  ["CC(=O)c1cc(CC2Cc3cc4c(cc3C2=O)CCC4)cc2c1CCC2 (stereo not given)", "> 100 µM"],
  ["CC(=O)NNc1nc(C)c(C(/C=C/c2ccc(Cl)cc2)=N\\N=C(N)N)s1", "> 100 µM"],
  ["O=[N+]([O-])c1ccc(Cc2nc3cc4ccccc4cc3[nH]2)cc1C(F)(F)F", "48.5 µM"],
  ["C/C(=N\\Nc1nc2ccccc2o1)c1ncccn1", "0.404 µM"]
]}

====

System: SNB-75 CNS
Test: NCI tumour cell line growth inhibition, 48 h

{"columns": ["compound", "TGI"],
 "data": [
  ["CN1C(c2ccccc2)CC(C)(O)CC1c1ccccc1 (stereo not drawn)", "> 100 µM"],
  ["Cc1ccc(C(=O)C(c2nc3n(c2O)C(=N)N=N3)c2nc3n(c2O)C(=N)N=N3)cc1 (stereo not drawn)", "> 100 µM"],
  ["C[C@]12CCCN1CC1=NNC(=O)c3cc(F)cc4[nH]c2c1c34", "35.9 µM"],
  ["CC(C)(C)C(O)CC(O)(C(F)(F)F)C(F)(F)F (stereo not drawn)", "> 100 µM"],
  ["COc1ccc(C2CC(c3ccccc3)=NN2C(=O)c2cc(OC)c(OC)c(OC)c2)cc1O (stereo not drawn)", "> 100 µM"],
  ["CC(C)(Oc1ccc(C(=O)c2ccc(Cl)cc2)cc1Cl)C(=O)N1CCN(CCO)CC1", "> 10 µM"],
  ["COc1ccc(-c2[nH]c(-c3ccc(OC)cc3)c(-c3ccccn3)c2-c2ccccn2)cc1", "> 100 µM"],
  ["Nc1nc(=S)c2ncn(C3OC(CO)C(O)C3O)c2[nH]1 (stereo not drawn)", "> 100 µM"],
  ["CCOC(=O)c1cc(C2=CCNC2=O)c(-c2cc(C)no2)[nH]1", "> 100 µM"],
  ["CCOC(=O)NC(Nc1ccc(S(=O)(=O)Nc2ccc(OC)nn2)cc1)(C(F)(F)F)C(F)(F)F", "> 100 µM"],
  ["CCCCCCCCCC(=O)NCCc1c[nH]c2ccc(OC)cc12", "44 µM"],
  ["Brc1c2c(c(Br)c3nsnc13)N=S=N2", "63.7 µM"],
  ["Cc1c2oc3c(C)cnc(C(=O)NC4C(=O)NC(C(C)C)C(=O)N5CCCC5C(=O)N(C)CC(=O)N(C)C(C(C)C)C(=O)OC4C)c3nc-2c(C(=O)NC2C(=O)NC(C(C)C)C(=O)N3CCCC3C(=O)N(C)CC(=O)N(C)C(C(C)C)C(=O)OC2C)c(N)c1=O (stereo not drawn)", "21.3 µM"]
]}

====

Test system: HCT-15 colon
Test: NCI tumour cell line growth inhibition, 48 h
Entries and their measured TGI follow.

{"columns": ["molecule", "TGI"],
 "data": [
  ["CCSc1nc(NC(C)c2ccccc2)c2cnn(CO)c2n1 (stereo unspecified)", "> 100 µM"],
  ["COC1=CC(=O)c2c(c(COC(C)=O)cn2C)C1=O", "0.0522 µM"],
  ["O=[N+]([O-])c1ccc(NNN=Nc2ccc(-c3nc4ccccc4[nH]3)cc2)c([N+](=O)[O-])c1", "> 100 µM"],
  ["CCCCOC(=O)/C=C\\C(=O)NC(N)=O", "38.3 µM"],
  ["COc1ccc(N2C(=O)C(=O)N(C)C2=O)c2ccccc12", "> 10 µM"],
  ["Cc1ccc(S(=O)(=O)OCC(=O)Nc2ccc(C(=O)O)c(O)c2)cc1", "155 µM"]
]}
